Test system: U-251
Assay Overview: NCI tumour cell line growth inhibition, 48 h
Activity calls are given as the source filed them. Rule as the data show it: active = GI50 up to about 1.1 µM and inactive = higher.
Outcomes: active, inactive

Compound: COc1cc([C@@H]2c3cc4c(cc3C[C@H]3COC(=O)[C@@H]32)OCO4)cc2c1OCO2
Label Class: active
--
Compound: N#CCCN(CCC#N)c1ccc(/C=C2\N=C(CN3C(=O)c4ccccc4C3=O)OC2=O)cc1
Label Class: inactive
--
Compound: O=C1CCSCCC(=O)Nc2ccccc2N1
Label Class: inactive
--
Compound: O=C1C(Cl)C(c2cccc(O)c2)N1n1cnc2ccccc2c1=O (configuration not stated)
Label Class: inactive
--
Compound: O=c1[nH]n(Cc2ccccc2Cl)c2ccccc12
Label Class: inactive
--
Compound: COc1cc2cc(C(=O)N3CC(COS(C)(=O)=O)c4ccc(O)cc43)[nH]c2c(OC)c1OC (configuration not stated)
Label Class: active
--
Compound: O=c1[nH]/c(=C/c2ccc(OCc3ccccc3)cn2)c(=O)[nH]/c1=C/c1ccccc1
Label Class: active
--
Compound: Cc1ccc(-n2c3nc(=O)n(C)c(=O)c-3nc3ccccc32)cc1
Label Class: inactive
--
Compound: CC(C)/C(Cl)=N\OC(=O)NNc1ccccc1
Label Class: inactive
--
Compound: CC(=O)C(=O)NC1/C=C(C)\C=C/C(O)C/C=C(C)\C=C/C(O)CC2OC(=O)C1(C)C(=O)C2C (configuration not stated)
Label Class: inactive
--
Compound: CN(C)C(=O)C(NCCO)c1ccccc1 (configuration not stated)
Label Class: inactive
--
Compound: C(=C(c1ccc(OC2CCCCO2)cc1)c1ccc(OC2CCCCO2)cc1)c1ccccc1 (configuration not stated)
Label Class: active
--
Compound: CCOC(=O)C(CC/C=C\c1ccccc1)N1CCC[C@H]1C(=O)OC (some centres not stated)
Label Class: inactive
--
Compound: Cc1c(CCOC=O)c(=O)[nH]c2nncn12
Label Class: inactive
--
Compound: Cc1ccc2cccc(OC(=O)c3cc4c(cc3Cl)Sc3nccn3S4(=O)=O)c2n1
Label Class: inactive
--
Compound: CNCc1cc(OC)ccc1-c1ccc(OC)c(OC)c1OC
Label Class: inactive
--
Compound: COc1cccc([C@@H]2C/C(=N\NC(=O)C(=O)N[C@@H](C)c3ccccc3)c3ccccc3N2)c1
Label Class: inactive
--
Compound: O=[N+]([O-])/C=C/c1cn(CCCCCCCCCCCCn2cc(/C=C/[N+](=O)[O-])c3ccccc32)c2ccccc12
Label Class: inactive
--
Compound: COC(=O)C1=C(C(=O)OC)C(C(=O)OC)C(C(=O)OC)=C1C(=O)OC
Label Class: inactive
--
Compound: O=C1C(/N=N/c2ccc(-c3nc4ccccc4o3)cc2)NC(=S)N1c1ccccc1 (configuration not stated)
Label Class: inactive
--
Compound: O=C(O)CN1CCN(CC(=O)O)CCN(CC(=O)O)CCN(CC(=O)O)CC1
Label Class: inactive
--
Compound: O=C(C(=O)N1CCc2ccccc21)c1c[nH]c2ccccc12
Label Class: inactive
--
Compound: CC(C)(C)OC(=O)N(CCNS(=O)(=O)c1cccc2cnccc12)CCC(=O)ON1C(=O)CCC1=O
Label Class: inactive
--
Compound: CC(=O)NC1=C(NCCCl)C(=O)c2ccccc2C1=O
Label Class: inactive
--
Compound: N#CC(NCCc1ccccc1)c1ccc(C(C#N)NCCc2ccccc2)cc1 (configuration not stated)
Label Class: inactive
--
Compound: OC1C#CCSCC#C/C=C\1 (configuration not stated)
Label Class: inactive
--
Compound: O=S(=O)(CCBr)CCBr
Label Class: inactive
